Assay: Cytotoxicity against rat PC12 cells assessed as cell viability at 75 uM after 24 hrs by MTT assay relative to control
Format: cell-based
Settings: pc-12, 24 h
Experimental Readout: Activity

[
  {
    "Compound": "O=C1C=C(c2ccc(O)cc2O)C(Cc2ccc(O)cc2)O1 (stereo unspecified)",
    "Experimental Readout": "Activity",
    "Recorded Result": "Toxic"
  },
  {
    "Compound": "O=C1C=C(c2ccc(O)cc2O[C@@H]2O[C@H](CO)[C@@H](O)[C@H](O)[C@H]2O)C(Cc2ccc(O)cc2)O1 (stereo partly specified)",
    "Experimental Readout": "Activity",
    "Recorded Result": "Non-toxic"
  },
  {
    "Compound": "OC[C@H]1O[C@@H](Oc2ccc3c(c2)OCC2c4cc5c(cc4OC32)OCO5)[C@H](O)[C@@H](O)[C@@H]1O (stereo partly specified)",
    "Experimental Readout": "Activity",
    "Recorded Result": "Toxic"
  },
  {
    "Compound": "COc1ccc(C2=CC(=O)OC2Cc2ccc(O)cc2)c(O[C@@H]2O[C@H](CO)[C@@H](O)[C@H](O)[C@H]2O)c1 (stereo partly specified)",
    "Experimental Readout": "Activity",
    "Recorded Result": "Toxic"
  },
  {
    "Compound": "COc1ccc2c(c1)O[C@H]1c3ccc(O)cc3OC[C@@H]21",
    "Experimental Readout": "Activity",
    "Recorded Result": "Non-toxic"
  },
  {
    "Compound": "Oc1ccc2c(c1)OC[C@H]1c3cc4c(cc3O[C@@H]21)OCO4",
    "Experimental Readout": "Activity",
    "Recorded Result": "Non-toxic"
  }
]

* * *

Assay: Cytotoxicity against rat PC12 cells assessed as cell viability at 30 uM after 24 hrs by MTT assay
Type: cell-based
Conditions: pc-12, 24 h

[
  {
    "Molecule": "OC[C@H]1O[C@@H](Oc2ccc3c(c2)OCC2c4cc5c(cc4OC32)OCO5)[C@H](O)[C@@H](O)[C@@H]1O (stereo partly specified)",
    "Activity": "Non-toxic"
  },
  {
    "Molecule": "Oc1ccc2c(c1)OC[C@H]1c3cc4c(cc3O[C@@H]21)OCO4",
    "Activity": "Non-toxic"
  },
  {
    "Molecule": "O=C1C=C(c2ccc(O)cc2O[C@@H]2O[C@H](CO)[C@@H](O)[C@H](O)[C@H]2O)C(Cc2ccc(O)cc2)O1 (stereo partly specified)",
    "Activity": "Non-toxic"
  },
  {
    "Molecule": "COc1ccc2c(c1)O[C@H]1c3ccc(O)cc3OC[C@@H]21",
    "Activity": "Non-toxic"
  },
  {
    "Molecule": "O=C1C=C(c2ccc(O)cc2O)C(Cc2ccc(O)cc2)O1 (stereo unspecified)",
    "Activity": "Non-toxic"
  },
  {
    "Molecule": "COc1ccc(C2=CC(=O)OC2Cc2ccc(O)cc2)c(O[C@@H]2O[C@H](CO)[C@@H](O)[C@H](O)[C@H]2O)c1 (stereo partly specified)",
    "Activity": "Non-toxic"
  }
]

* * *

Measured IC50 values are reported for all entries that follow.
Experiment: Antioxidant activity assessed as ABTS radical scavenging activity after 6 mins
Assay type: physicochemical
Experimental Readout: IC50

[
  {
    "Compound": "O=c1c(O)c(-c2ccc(O)c(O)c2)oc2cc(O)cc(O)c12",
    "Recorded Result": "6.94 µg/mL"
  },
  {
    "Compound": "OC[C@H]1O[C@@H](Oc2ccc3c(c2)OCC2c4cc5c(cc4OC32)OCO5)[C@H](O)[C@@H](O)[C@@H]1O (some centres undefined)",
    "Recorded Result": "63.21 µg/mL"
  },
  {
    "Compound": "COc1ccc(C2=CC(=O)OC2Cc2ccc(O)cc2)c(O[C@@H]2O[C@H](CO)[C@@H](O)[C@H](O)[C@H]2O)c1 (some centres undefined)",
    "Recorded Result": "61.39 µg/mL"
  },
  {
    "Compound": "COc1ccc(-c2coc3cc(O[C@@H]4O[C@H](CO)[C@@H](O)[C@H](O)[C@H]4O)ccc3c2=O)cc1",
    "Recorded Result": "71.3 µg/mL"
  }
]
